# Target: T1, human CAPRIN-1 protein on the cell surfaces of human cancer cell lines and in human cancer tissues (human, UniProt Q14444 2-709)
# T1 sequence (looked up): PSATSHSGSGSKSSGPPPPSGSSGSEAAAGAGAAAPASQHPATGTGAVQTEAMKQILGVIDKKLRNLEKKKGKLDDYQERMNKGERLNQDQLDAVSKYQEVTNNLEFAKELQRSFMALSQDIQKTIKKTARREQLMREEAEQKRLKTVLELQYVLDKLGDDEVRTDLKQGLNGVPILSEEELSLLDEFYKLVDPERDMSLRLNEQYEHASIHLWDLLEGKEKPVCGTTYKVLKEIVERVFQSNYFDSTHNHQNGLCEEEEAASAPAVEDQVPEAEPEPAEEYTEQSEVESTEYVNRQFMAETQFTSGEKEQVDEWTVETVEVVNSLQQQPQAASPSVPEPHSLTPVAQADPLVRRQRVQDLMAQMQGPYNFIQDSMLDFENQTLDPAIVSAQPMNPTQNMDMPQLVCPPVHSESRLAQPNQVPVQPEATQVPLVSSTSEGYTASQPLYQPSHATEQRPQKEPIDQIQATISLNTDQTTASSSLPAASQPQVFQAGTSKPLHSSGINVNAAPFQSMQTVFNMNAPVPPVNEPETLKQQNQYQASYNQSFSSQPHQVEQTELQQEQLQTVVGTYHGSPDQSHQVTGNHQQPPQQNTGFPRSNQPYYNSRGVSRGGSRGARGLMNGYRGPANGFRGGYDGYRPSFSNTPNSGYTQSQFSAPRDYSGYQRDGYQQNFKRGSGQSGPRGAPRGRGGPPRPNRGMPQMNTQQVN
# Method description: cell-based or functional assay
Test readout: cytotoxic activity (ADCC) against Ramos (%)
Entry rule: numbers only, all in %.

Req: Give cytotoxic activity (ADCC) against Ramos for human-chicken chimeric antibody #1 having the chicken monoclonal antibody #1 variable region (antibody, V domains shown, also called anti-CAPRIN-1 antibody #1; human-chicken chimeric monoclonal antibody (#1); not shown: human IgG1 H-chain constant region; human IgG1 L-chain constant region) VH: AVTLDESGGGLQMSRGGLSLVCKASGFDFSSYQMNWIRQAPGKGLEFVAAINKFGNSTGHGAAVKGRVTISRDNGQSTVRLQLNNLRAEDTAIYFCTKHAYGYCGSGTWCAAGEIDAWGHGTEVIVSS VL: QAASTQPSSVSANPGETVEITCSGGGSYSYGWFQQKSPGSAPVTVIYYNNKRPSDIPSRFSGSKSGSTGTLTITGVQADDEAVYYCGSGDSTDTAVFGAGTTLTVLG
Resp: 11.7
